Target or system UniProtKB P42336: recorded IC50 listed per item.
Sequence (P42336 whole entry, looked up): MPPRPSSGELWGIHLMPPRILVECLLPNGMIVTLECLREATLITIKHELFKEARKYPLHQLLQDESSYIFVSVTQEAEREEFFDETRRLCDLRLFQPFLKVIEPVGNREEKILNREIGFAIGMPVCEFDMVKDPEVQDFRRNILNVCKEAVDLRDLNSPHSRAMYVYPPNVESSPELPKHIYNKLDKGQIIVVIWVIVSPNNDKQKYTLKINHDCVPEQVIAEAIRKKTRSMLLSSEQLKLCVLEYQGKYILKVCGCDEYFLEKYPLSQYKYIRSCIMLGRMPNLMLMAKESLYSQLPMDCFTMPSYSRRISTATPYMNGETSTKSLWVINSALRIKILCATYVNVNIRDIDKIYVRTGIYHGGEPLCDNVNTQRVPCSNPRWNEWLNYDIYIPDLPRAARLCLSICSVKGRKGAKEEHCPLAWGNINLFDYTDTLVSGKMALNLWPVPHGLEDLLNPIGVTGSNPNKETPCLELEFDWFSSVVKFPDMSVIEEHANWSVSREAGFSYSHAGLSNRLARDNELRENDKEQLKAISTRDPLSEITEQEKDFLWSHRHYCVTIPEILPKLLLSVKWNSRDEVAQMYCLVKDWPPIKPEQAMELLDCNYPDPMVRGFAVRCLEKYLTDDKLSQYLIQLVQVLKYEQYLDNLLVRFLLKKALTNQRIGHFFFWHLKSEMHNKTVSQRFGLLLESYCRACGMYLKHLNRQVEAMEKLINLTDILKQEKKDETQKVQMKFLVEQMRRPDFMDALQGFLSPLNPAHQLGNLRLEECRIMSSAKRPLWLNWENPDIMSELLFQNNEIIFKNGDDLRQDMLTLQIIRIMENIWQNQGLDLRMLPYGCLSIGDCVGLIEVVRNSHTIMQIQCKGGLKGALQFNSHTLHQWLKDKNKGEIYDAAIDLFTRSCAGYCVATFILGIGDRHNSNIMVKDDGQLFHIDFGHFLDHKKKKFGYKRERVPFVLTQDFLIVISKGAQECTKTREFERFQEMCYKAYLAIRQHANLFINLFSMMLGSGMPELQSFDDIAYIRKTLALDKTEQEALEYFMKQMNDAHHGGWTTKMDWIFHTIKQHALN
Give the value, in units of nM, as a plain number.

Per the records, this compound ( CCc1ncnc(-c2ccc(C(=O)N3CC[C@@H](O)C3)c(Cl)c2)c1C#Cc1ccc(N)nc1 [Example E-28] ) has IC50 equal to 65.6

Entry CCc1ncnc(-c2ccc(C(=O)N3CCCC(O)C3)c(Cl)c2)c1C#Cc1ccc(N)nc1 [Example D-147] , IC50 reported as 65

// IC50 lookup, compound = CCc1ncnc(-c2ccc(F)c(C(=O)N3CCOCC3)c2)c1C#Cc1ccc(N)nc1 , result: 226

Per the records, this compound ( CCc1ncnc(-c2ccc(C(=O)N3CCN(CCN(C)C)CC3)c(OC)c2)c1C#Cc1ccc(N)nc1 ) has IC50 equal to 546

Notebook: CCc1ncnc(-c2ccc(C(=O)N(C)C3CCS(=O)(=O)C3)c(F)c2)c1C#Cc1ccc(N)nc1 (centres unmarked) , IC50 read as 59

Just so you know, measured IC50 for CCc1ncnc(-c2ccc(C(=O)N3CCN(CC(=O)N(C)C)CC3)c(F)c2)c1C#Cc1ccc(N)nc1C came out at 123

Documented IC50 of Cc1ncnc(-c2cccc(C(=O)N(C)C)c2)c1C#Cc1ccc(N)nc1 : 401

The recorded IC50 for entry CCc1ncnc(-c2ccc(C(=O)N3CCN(CC4CC4)CC3)c(Cl)c2)c1C#Cc1ccc(N)nc1 [Example D-136] equals 228
